- Subject Of Test: BRD3 (BD2) (Homo sapiens, UniProt Q15059)
- Construct: on the BRD3 (BD1, BD2, BD1+BD2) protein; GST
- Assay Notes: Binding inhibition of BRD3 (BD2), same manner as Test Example 1
- Applied Conditions: AlphaScreen, acetyl-histone H4 peptide
pIC50: −log10 of the molar value.
Endpoint: pIC50

[
  {
    "Molecule": "Cc1cc(-c2oc3cc(O)cc(O)c3c(=O)c2O)cc(C)c1OC1COC1",
    "Test Result": 5.87
  }
]

----------
- Subject Of Test: BRD2 (BD1 + BD2) (Homo sapiens, UniProt P25440)
- Construct: 100 nM GST-BRD2 (BD1, BD2, BD1+BD2)
- Sequence (P25440 74-453 limits assumed): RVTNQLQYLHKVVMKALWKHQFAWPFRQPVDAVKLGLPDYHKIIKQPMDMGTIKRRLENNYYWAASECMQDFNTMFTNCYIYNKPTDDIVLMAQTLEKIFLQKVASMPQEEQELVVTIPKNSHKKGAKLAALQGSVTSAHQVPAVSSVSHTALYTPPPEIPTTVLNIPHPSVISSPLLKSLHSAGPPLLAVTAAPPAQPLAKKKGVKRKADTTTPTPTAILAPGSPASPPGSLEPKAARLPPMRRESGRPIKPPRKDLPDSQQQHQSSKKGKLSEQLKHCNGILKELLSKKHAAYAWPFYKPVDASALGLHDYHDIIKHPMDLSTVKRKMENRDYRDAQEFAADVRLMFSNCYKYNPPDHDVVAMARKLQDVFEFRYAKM
- Assay Notes: AlphaScreen binding inhibition of GST-BRD2 (BD1+BD2) and tetraacetylated histone H4 peptide
- Applied Conditions: AlphaScreen, acetyl-histone H4 peptide
Endpoint: IC50 (µM)

[
  {
    "Molecule": "O=c1c(O)c(-c2ccc3[nH]cnc3c2)oc2cc(O)cc(O)c12",
    "Subject Of Test": "BRD2 (BD1 + BD2) (Homo sapiens, UniProt P25440)",
    "Test Result": 9.7
  }
]

----------
- Subject Of Test: BRD3 (BD1 + BD2) (Homo sapiens)
- Construct: on the BRD3 (BD1, BD2, BD1+BD2) protein; GST
- Sequence (Q15059 34-415 limits assumed): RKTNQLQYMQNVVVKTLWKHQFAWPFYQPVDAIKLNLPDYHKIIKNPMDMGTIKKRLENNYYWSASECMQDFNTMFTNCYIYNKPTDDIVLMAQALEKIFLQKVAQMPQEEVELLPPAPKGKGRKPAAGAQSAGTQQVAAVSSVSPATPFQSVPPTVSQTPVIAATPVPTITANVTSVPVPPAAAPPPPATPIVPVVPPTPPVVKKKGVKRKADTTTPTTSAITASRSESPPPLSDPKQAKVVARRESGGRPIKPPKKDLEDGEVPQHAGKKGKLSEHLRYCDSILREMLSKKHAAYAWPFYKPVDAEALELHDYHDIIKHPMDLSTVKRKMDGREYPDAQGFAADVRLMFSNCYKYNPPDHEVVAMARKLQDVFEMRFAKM
- Assay Notes: Binding inhibition of BRD3 (BD1+BD2), same manner as Test Example 1
- Applied Conditions: AlphaScreen, acetyl-histone H4 peptide

[
  {
    "Compound": "O=c1c(O)c(-c2ccc3[nH]ccc3c2)oc2cc(O)cc(O)c12 [BBC0114]",
    "Subject Of Test": "BRD3 (BD1 + BD2) (Homo sapiens)",
    "IC50, µM": 51.3
  },
  {
    "Compound": "O=c1c(O)c(-c2ccc(O)c(OC3COC3)c2)oc2cc(O)cc(O)c12 [BBC0303]",
    "Subject Of Test": "BRD3 (BD1 + BD2) (Homo sapiens)",
    "IC50, µM": 95.6
  },
  {
    "Compound": "O=c1c(O)c(-c2ccc(OC3COC3)c(O)c2)oc2cc(O)cc(O)c12 [BBC0301]",
    "Subject Of Test": "BRD3 (BD1 + BD2) (Homo sapiens)",
    "IC50, µM": 29.4
  },
  {
    "Compound": "O=c1c(O)c(-c2ccc3cc[nH]c3c2)oc2cc(O)cc(O)c12 [BBC0115]",
    "Subject Of Test": "BRD3 (BD1 + BD2) (Homo sapiens)",
    "IC50, µM": 86
  },
  {
    "Compound": "O=c1[nH]c2ccc(-c3oc4cc(O)cc(O)c4c(=O)c3O)cc2[nH]1 [BBC0110]",
    "Subject Of Test": "BRD3 (BD1 + BD2) (Homo sapiens)",
    "IC50, µM": 20.1
  },
  {
    "Compound": "O=c1c(O)c(-c2ccc3[nH]cnc3c2)oc2cc(O)cc(O)c12 [BBC0109]",
    "Subject Of Test": "BRD3 (BD1 + BD2) (Homo sapiens)",
    "IC50, µM": 20.8
  }
]

----------
- Subject Of Test: BRD2 (BD1) (Homo sapiens, UniProt P25440)
- Construct: 100 nM GST-BRD2 (BD1, BD2, BD1+BD2)
- Sequence (P25440 74-180 limits assumed): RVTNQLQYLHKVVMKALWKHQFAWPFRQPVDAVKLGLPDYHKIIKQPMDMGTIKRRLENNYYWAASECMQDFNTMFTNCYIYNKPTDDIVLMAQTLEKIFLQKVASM
- Assay Notes: AlphaScreen binding inhibition of GST-BRD2 (BD1) and tetraacetylated histone H4 peptide
- Applied Conditions: AlphaScreen, acetyl-histone H4 peptide
pIC50: −log10 of the molar value.
Label MET for high-side pIC50 (at or above 5) and NOT MET for low-side pIC50 (below it).

[
  {
    "Molecule": "O=c1c(O)c(-c2ccc3c(c2)CCCO3)oc2cc(O)cc(O)c12",
    "Classification": "MET"
  },
  {
    "Molecule": "Cc1cc(-c2oc3cc(O)cc(O)c3c(=O)c2O)cc(OC2COC2)c1O",
    "Classification": "NOT MET"
  },
  {
    "Molecule": "O=c1c(O)c(-c2ccc(OC3COC3)cc2)oc2cc(O)cc(O)c12",
    "Classification": "MET"
  },
  {
    "Molecule": "O=c1c(O)c(-c2ccc3c(c2)CCO3)oc2cc(O)cc(O)c12",
    "Classification": "MET"
  },
  {
    "Molecule": "O=c1c(O)c(-c2ccc3ccoc3c2)oc2cc(O)cc(O)c12",
    "Classification": "MET"
  },
  {
    "Molecule": "O=c1c(O)c(-c2ccc3c(c2)OCC3)oc2cc(O)cc(O)c12",
    "Classification": "MET"
  },
  {
    "Molecule": "O=c1c(O)c(-c2ccc3[nH]ccc3c2)oc2cc(O)cc(O)c12",
    "Classification": "MET"
  },
  {
    "Molecule": "Cc1cc(-c2oc3cc(O)cc(O)c3c(=O)c2O)cc(O)c1OC1COC1",
    "Classification": "MET"
  },
  {
    "Molecule": "Cc1cc(-c2oc3cc(O)cc(O)c3c(=O)c2O)cc(C)c1OC1COC1",
    "Classification": "MET"
  },
  {
    "Molecule": "O=c1c(O)c(-c2ccc3cc[nH]c3c2)oc2cc(O)cc(O)c12",
    "Classification": "MET"
  },
  {
    "Molecule": "O=c1c(O)c(-c2ccc(OC3COC3)c(O)c2)oc2cc(O)cc(O)c12",
    "Classification": "NOT MET"
  }
]

----------
- Subject Of Test: BRD4 (BD1 + BD2) (Homo sapiens)
- Construct: on the BRD4 (BD1, BD2, BD1+BD2) protein; GST
- Assay Notes: Binding inhibition of BRD4 (BD1+BD2), same manner as Test Example 1
- Applied Conditions: AlphaScreen, acetyl-histone H4 peptide
Please note: IC50 exactly at 90 µM is label 0. Only values below 90 µM get label 1.

[
  {
    "Molecule": "COc1cc(OC)c2c(=O)[nH]c(-c3cc(C)c(OCCO)c(C)c3)cc2c1 [BBC0204, reference compound]",
    "Classification": "label 0"
  },
  {
    "Molecule": "O=c1c(O)c(-c2ccc3[nH]cnc3c2)oc2cc(O)cc(O)c12 [BBC0109]",
    "Classification": "label 1"
  },
  {
    "Molecule": "Cc1cc(-c2oc3cc(O)cc(O)c3c(=O)c2O)cc(OC2COC2)c1O [BBC0307]",
    "Classification": "label 1"
  },
  {
    "Molecule": "O=c1[nH]c2ccc(-c3oc4cc(O)cc(O)c4c(=O)c3O)cc2[nH]1 [BBC0110]",
    "Classification": "label 1"
  },
  {
    "Molecule": "O=c1c(O)c(-c2ccc(OC3COC3)c(O)c2)oc2cc(O)cc(O)c12 [BBC0301]",
    "Classification": "label 1"
  }
]

----------
- Subject Of Test: BRD2 (BD1) (Homo sapiens, UniProt P25440)
- Construct: 100 nM GST-BRD2 (BD1, BD2, BD1+BD2)
- Assay Notes: AlphaScreen binding inhibition of GST-BRD2 (BD1) and tetraacetylated histone H4 peptide
- Applied Conditions: AlphaScreen, acetyl-histone H4 peptide
pIC50: −log10 of the molar value.
Listing: pIC50 of selected compounds

[
  {
    "Compound": "O=c1c(O)c(-c2ccc(O)c(O)c2)oc2cccc(O)c12 [BBC0104]",
    "pIC50": 5.07
  },
  {
    "Compound": "O=c1[nH]c2ccc(-c3oc4cc(O)cc(O)c4c(=O)c3O)cc2o1 [BBC0113]",
    "pIC50": 4.91
  },
  {
    "Compound": "O=c1c(O)c(-c2ccc3occc3c2)oc2cc(O)cc(O)c12 [BBC0310]",
    "pIC50": 5.00
  },
  {
    "Compound": "O=c1c(O)c(-c2ccc(O)c(OC3COC3)c2)oc2cc(O)cc(O)c12 [BBC0303]",
    "pIC50": 5.08
  },
  {
    "Compound": "O=c1c(O)c(-c2ccc(O)c(O)c2)oc2cc(O)ccc12 [BBC0105]",
    "pIC50": 5.05
  },
  {
    "Compound": "O=c1c(O)c(-c2ccc3[nH]cnc3c2)oc2cc(O)cc(O)c12 [BBC0109]",
    "pIC50": 5.06
  },
  {
    "Compound": "O=c1[nH]c2ccc(-c3oc4cc(O)cc(O)c4c(=O)c3O)cc2[nH]1 [BBC0110]",
    "pIC50": 5.04
  }
]
